Origin of the recorded values: patent US20240247080A1

Biological target: T1, human GIP receptor (human, UniProt P48546 22-466)
T1 sequence (looked up): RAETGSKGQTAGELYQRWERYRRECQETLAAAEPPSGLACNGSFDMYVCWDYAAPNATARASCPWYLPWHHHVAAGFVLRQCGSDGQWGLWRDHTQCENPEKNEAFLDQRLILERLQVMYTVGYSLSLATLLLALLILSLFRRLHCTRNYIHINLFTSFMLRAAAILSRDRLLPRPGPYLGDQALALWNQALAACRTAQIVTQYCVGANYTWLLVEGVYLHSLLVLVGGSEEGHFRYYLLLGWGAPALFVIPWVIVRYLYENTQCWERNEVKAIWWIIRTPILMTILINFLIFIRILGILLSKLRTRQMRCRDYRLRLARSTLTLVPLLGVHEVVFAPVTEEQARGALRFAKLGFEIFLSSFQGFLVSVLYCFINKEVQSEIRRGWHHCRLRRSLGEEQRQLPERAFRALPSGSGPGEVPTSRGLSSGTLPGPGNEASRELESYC
Assay: cell-based or functional assay
Starred links: 1 amine or outer side, 2 acyl side, 3 side chain; linkers in the order of their positions; H or OH if unused. Non-standard residues stand in square brackets, D forms with d. Groups on a side chain read outwards from the residue. No end group written: not given here. *: point of attachment. C20 diacid = O=C(O)CCCCCCCCCCCCCCCCCCC(=O)*; C18 diacid = O=C(O)CCCCCCCCCCCCCCCCC(=O)*; γGlu = O=C(O)[C@H](CCC(=O)[*:2])N[*:1]; εLys = N[C@@H](CCCCN[*:1])C(=O)[*:2]; AEEA = NCCOCCOCC(=O)O; Aib = CC(C)(N)C(=O)O
We label by threshold. Values of EC50 hGIPR 0.5% hP (CreLuc) strictly beneath 0.3 nM are 1. Values of 0.3 nM and up are 0.

Sample answers from the record:
### Prompt Criterion: EC50 hGIPR 0.5% hP (CreLuc) strictly below 0.3 nM. Is it met by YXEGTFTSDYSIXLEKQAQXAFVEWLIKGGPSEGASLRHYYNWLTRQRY (Aib at 2, 13, 20; K28 side chain acylated with C18DA-gGlu-gGlu-gGlu-gGlu-gGlu-AHX; C-terminal amide (NH2)) [Compound 304] ?
### Response 1

### Prompt Below 0.3 nM on EC50 hGIPR 0.5% hP (CreLuc)? Entry Y[Aib]EGTFTSDYSI[Aib]LEKQAQ[Aib]AFVQWLIK([AEEA-AEEA-γGlu-γGlu-γGlu-γGlu-C20 diacid])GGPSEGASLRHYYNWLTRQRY-NH2 (also: TFA salt) [Compound 269]
### Response 0

### Prompt Please indicate whether the reported EC50 hGIPR 0.5% hP (CreLuc) of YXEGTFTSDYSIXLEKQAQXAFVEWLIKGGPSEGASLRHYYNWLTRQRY (Aib at 2, 13, 20; K28 side chain acylated with C18DA-gGlu-Glu-gGlu-gGlu-gGlu-gGlu-eLys (so in the source); C-terminal amide (NH2)) [Compound 293] is strictly below 0.3 nM.
### Response 1

### Prompt In plain terms, does Y[Aib]EGTFTSDYSI[Aib]LEKQAQ[Aib]AFVEWLIK([AEEA-AEEA-γGlu-γGlu-γGlu-C18 diacid])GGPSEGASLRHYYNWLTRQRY-NH2 (also: TFA salt) [Compound 299] come in under 0.3 nM for EC50 hGIPR 0.5% hP (CreLuc)?
### Response 0

### Prompt For this binder, is EC50 hGIPR 0.5% hP (CreLuc) lower than 0.3 nM? Y[Aib]EGTFTSDYSI[Aib]LEKQAQ[Aib]AFVQWLIK([γGlu-γGlu-γGlu-γGlu-C18 diacid])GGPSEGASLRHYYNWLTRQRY-NH2 (also: TFA salt) [Compound 268]
### Response 1

Next:
### Prompt Bench note: check whether Y[Aib]EGTFTSDYSI[Aib]LEKQAE[Aib]AFVEWLIK([γGlu-γGlu-γGlu-γGlu-C18 diacid])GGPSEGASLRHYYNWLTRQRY-NH2 (also: TFA salt) [Compound 262] shows EC50 hGIPR 0.5% hP (CreLuc) below 0.3 nM
### Response 1

### Prompt A record lists Y[Aib]EGTFTSDYSI[Aib]LEKQAQ[Aib]AFVEWLIK([Glu-Glu-Glu-Glu-Glu-Glu-C18 diacid])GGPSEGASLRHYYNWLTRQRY-NH2 (also: TFA salt) [Compound 302] . Is its EC50 hGIPR 0.5% hP (CreLuc) below 0.3 nM?
### Response 0

### Prompt Decide: EC50 hGIPR 0.5% hP (CreLuc) of Y[Aib]EGTFTSDYSI[Aib]LEKQAQ[Aib]AFVEWLIK([εLys-γGlu-γGlu-γGlu-γGlu-γGlu-C18 diacid])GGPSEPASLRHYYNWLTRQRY-NH2 (also: TFA salt) [Compound 263] strictly below 0.3 nM?
### Response 1
